assay_target: Toll-like receptor 9 (Homo sapiens)
Sequence (Q9NR96 whole entry): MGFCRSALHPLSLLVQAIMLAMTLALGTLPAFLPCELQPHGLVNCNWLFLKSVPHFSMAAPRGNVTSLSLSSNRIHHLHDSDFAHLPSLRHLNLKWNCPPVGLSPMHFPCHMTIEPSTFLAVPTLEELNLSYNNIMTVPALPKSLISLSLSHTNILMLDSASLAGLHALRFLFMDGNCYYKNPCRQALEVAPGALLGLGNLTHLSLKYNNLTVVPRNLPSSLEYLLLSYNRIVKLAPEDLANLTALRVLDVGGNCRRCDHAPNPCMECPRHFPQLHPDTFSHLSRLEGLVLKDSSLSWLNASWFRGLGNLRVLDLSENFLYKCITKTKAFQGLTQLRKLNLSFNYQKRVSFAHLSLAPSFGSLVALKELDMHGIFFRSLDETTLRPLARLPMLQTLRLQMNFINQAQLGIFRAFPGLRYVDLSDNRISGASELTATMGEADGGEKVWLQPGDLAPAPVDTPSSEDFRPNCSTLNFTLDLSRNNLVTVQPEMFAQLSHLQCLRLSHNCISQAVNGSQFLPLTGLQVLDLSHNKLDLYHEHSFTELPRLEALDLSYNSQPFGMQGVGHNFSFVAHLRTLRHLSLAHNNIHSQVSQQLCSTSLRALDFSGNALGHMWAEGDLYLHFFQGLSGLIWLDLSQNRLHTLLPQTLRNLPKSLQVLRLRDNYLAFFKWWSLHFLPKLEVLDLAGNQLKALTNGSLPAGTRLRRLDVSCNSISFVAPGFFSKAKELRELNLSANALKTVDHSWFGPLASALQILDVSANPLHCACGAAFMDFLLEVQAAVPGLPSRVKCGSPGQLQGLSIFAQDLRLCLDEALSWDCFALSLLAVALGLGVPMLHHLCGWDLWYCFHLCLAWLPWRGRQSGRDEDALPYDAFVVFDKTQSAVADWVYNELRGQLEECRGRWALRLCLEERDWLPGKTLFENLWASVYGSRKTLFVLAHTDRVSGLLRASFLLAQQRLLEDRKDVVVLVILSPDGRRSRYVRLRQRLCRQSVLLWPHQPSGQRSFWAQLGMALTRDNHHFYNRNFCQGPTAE
method_description: Antagonist activity at human TLR9 expressed in HEK-blue hTLR9 cells assessed as inhibition of CpGB-induced NFkappaB activation preincubated with compound for 1 hrs followed by CpGB addition and measured next day by SEAP-based spectrophotometry assay
Assay type: cell-based
Response field label: string, one of TRUE (IC50 strictly below 1000 nM) or FALSE.

Observe how each entry below is paired with its result.
COc1ccc(-c2nc3cc(N4CCN(C5CCCC5)CC4)ccn3c2NC2CCCCC2)c(OC)c1 = FALSE
COc1ccc(-c2cn3ccc(N4CCNCC4)cc3n2)c(OCc2ccccc2)c1 = TRUE
COc1ccc(-c2cn3ccc(N4CCN(C(=O)c5ccccc5)CC4)cc3n2)c(OCc2ccccc2)c1 = FALSE

IN: Lab note: IC50 threshold 1000 nM. Does this molecule come in strictly under it? COc1ccc(-c2nc3cc(N4CCN(C(C)C)CC4)ccn3c2CN2CCCC2)c(OC)c1
OUT: TRUE

IN: Dear colleague, could you confirm whether IC50 of COc1ccc(-c2cn3ccc(N(C)C)cc3n2)cc1 falls below 1000 nM? Thanks.
OUT: FALSE

----------
Known logD at 4.5 h of a selection of compounds
method_description: physchem
experimental_parameters: octanol/water
Description: 1-Octanol/phosphate buffer partition coefficient, logD of the compound measured after 4.5 hrs by HPLC-UV analysis
The answer should be written as a number, with no unit following it.

COc1ccc(-c2cn3ccc(N4CCN(C(C)C)CC4)cc3n2)cc1 = 1.64

Now look at this entry.
IN: Item COc1ccc(-c2cn3ccc(N4CCN(C5CCCC5)CC4)cc3n2)c(OC)c1 has what recorded logD at 4.5 h?
OUT: 2.13
